Experiment: RPL19A-GFP modulators, yeast TOR pathway, confirmation, cell-based, S. cerevisiae, flow cytometry, cherry picks, mother/daughter gates (AID 2270)
Details: S. cerevisiae RPL19A-GFP strain, 3 h, measured here: daughter cell gate, at 10 µM, stronger effect = lower value, 100 = same GFP as DMSO wells
Assignment: determine reported GFP response vs DMSO for the given compounds.
Answers are plain numbers, in %.

Some solved cases for reference:
O=C1c2ccccc2C(=O)N1OS(=O)(=O)c1ccc(F)cc1 ... 89.4
Cc1c(NC2=C(Cl)C(=O)N(c3ccccc3)C2=O)c(=O)n(-c2ccccc2)n1C ... 97.3
Cc1ccccc1C(=O)Nc1cccc(C#N)c1 ... 96.7

Consider the following items and state reported GFP response vs DMSO for each.
1. COc1ccc(OC(=O)c2cc(S(=O)(=O)N3CCCC3)ccc2Cl)cc1
2. O=C(NN1C(=O)/C(=C\c2ccc(O)c([N+](=O)[O-])c2)SC1=S)c1ccccc1Cl
3. O=C(Nc1ccc(Cl)cc1Cl)c1cccc(N2C(=O)C=CC2=O)c1
4. Cc1ccc(-c2ccc(CCC(=O)O)o2)cc1
5. C=CCN1C(=O)C2(C(C#N)=C(N)Oc3n[nH]c(CCC)c32)c2ccccc21 (stereo not drawn)
6. COc1ccc(C(=O)/C=C/c2ccccc2C(F)(F)F)cc1

Output:
1: 96.9; 2: 95.9; 3: 70.3; 4: 95.9; 5: 99.8; 6: 99.1

Give me GFP response vs DMSO for each of these compounds, listed below.
1. N#C/C(C(=O)Nc1ccc(Cl)cc1)=C(/S)Nc1ccccc1
2. CC(C)Cn1c(=O)c(C(=O)Nc2ccncc2)c(O)c2ccccc21
3. O=C(O)CCCn1nc(-c2ccccc2)c2ccccc21
4. COc1ccc(-c2ccc(SCC(=O)N3c4ccccc4CC3C)nn2)cc1OC (stereo not drawn)
5. O=C(c1ccc([N+](=O)[O-])o1)N(Cc1nnc(-c2ccccc2Cl)o1)C1CC1
6. CCC(=O)Nc1cccc(C(=O)/C=C/c2cc(Br)ccc2OC)c1
7. O=C1c2ccsc2SCCN1Cc1cccc(F)c1

Output:
[98.9, 101, 98.4, 98, 100, 99.2, 95.7]

State recorded GFP response vs DMSO for all listed compounds.
1. O=C(/C=C/c1ccc(F)cc1)NC(=S)NNC(=O)c1cnccn1
2. O=C(/C=C/c1ccc(F)cc1)c1ccccc1Br
3. C=CCn1cc(/C=C/c2cc[n+](C)cc2)c2ccccc21
4. COc1ccc(CC(=O)Oc2ccccc2C)cc1
5. Oc1ccc(Br)cc1/C=N/Nc1ccccn1
6. Cc1cc(N2CCOCC2)n2nc(C)c(-c3ccccc3)c2n1

Output:
89.8
98.1
99.6
99.6
92.3
100

Task: # get_value(readout='GFP response vs DMSO', item= C/C(=N\NC(=O)c1ccc(Cl)c(Cl)c1)c1cccc(NC(=O)C(C)C)c1 )
Output: 99.8

* * *

Consider the following molecules; for each one, report its GFP response vs DMSO.
Test: RPL19A-GFP modulators, yeast TOR pathway, confirmation, cell-based, S. cerevisiae, flow cytometry, cherry picks, mother/daughter gates (AID 2270)
Settings: S. cerevisiae RPL19A-GFP strain, 3 h, measured here: daughter cell gate, at 10 µM, stronger effect = lower value, 100 = same GFP as DMSO wells
Answers are plain numbers, in %.

Recorded results for 10 molecules are shown here.
COc1ccc(C(=O)Nc2c(N)nc[nH]c2=O)cc1 ... 99.3
CCn1cc([N+](=O)[O-])c(C(=O)Nc2nc(-c3ccc(C)c(C)c3)c(C)s2)n1 ... 98.6
O=C(NC(=S)NNC(=O)c1cnccn1)c1ccc(F)cc1 ... 91.7
N#C/C(=C\c1c(N2CCCCCC2)nc2ccccn2c1=O)C(=O)NC1CCS(=O)(=O)C1 (stereo not drawn) ... 101
CCCc1nnc(NC(=O)c2nc(S(=O)(=O)Cc3ccc(C)cc3)ncc2Cl)s1 ... 97.6
O=C(c1ccccc1)N1CCN(c2ccccc2F)CC1 ... 102
CCOC(=O)COc1c(Cl)cc(/C=C2\N=C(C)OC2=O)cc1OC ... 105
CC(NC(=O)C1CCC(CNS(=O)(=O)c2ccccc2)CC1)c1ccccc1 (stereo not drawn) ... 102
CCOC(=O)C(N)CSC1CC(=O)N(c2ccc(C(=O)OC)cc2)C1=O (stereo not drawn) ... 98.4
O=[N+]([O-])c1ccc(N2CCN(CCO)CC2)cc1Sc1ccccn1 ... 99.5

Give GFP response vs DMSO for each listed item.
1. COCCN(CCOC)S(=O)(=O)c1ccc(C(=O)Nc2nnc(C3CC3)o2)cc1
2. CC(=O)NN1C(=O)/C(=C/c2ccc(Br)o2)SC1=S
3. NC(=O)COc1ccc(C(=O)/C=C2/C(=O)Nc3ccccc32)cc1
4. OCc1ccccc1SSc1ccccc1CO
5. COc1ccc(OC)c(/C=C/C(=O)c2ccc(Cl)cc2)c1
6. CCC(=O)Nc1ccc(NC(=O)c2oc3ccccc3c2C)cc1
7. COc1cccc2c1Oc1ncccc1N(C(=O)CCC(=O)NCc1ccccc1F)C2

Output:
[99.8, 101, 93.4, 99.2, 91.9, 95, 101]

* * *

Test: LAP4-GFP expression modulators in yeast, confirmation, cell-based, cherry picks, flow cytometry, mother/daughter gates (AID 2271);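 also: ratio of sample to DMSO plate mean so 100% equals DMSO level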
Conditions: S. cerevisiae LAP4-GFP strain, 3 h, at 10 µM, 100 means same as DMSO control
Calls of active or inactive are those of the source.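 Rule for the calls: active = GFP response above 150% of the DMSO control; inconclusive = fewer than 70 events counted in any yeast strain; inactive = the rest.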
Hi! Could you answer with just one of these? active, inactive

CCOc1ccc(/C=C/C(=O)c2c(O)cc(C)oc2=O)cc1 ... inactive
Cc1cc(C)n2nc(C(=O)NC(c3ccccc3)c3ccccc3)nc2n1 ... inactive
CC(C)(C)n1nc(-c2ccc(Cl)cc2)c2c(N)ncnc21 ... active

Task: So what was the verdict on O=C(NC(=S)NNC(=O)c1ccc(Cl)cc1Cl)c1cccnc1 in this test?
Output: inactive

Task: I would be grateful if you could indicate the recorded call for COc1cccc(N=Nc2ccc(O)c3ncccc23)c1 .
Output: active

Task: Please indicate how the test categorized Cn1ncc(S(=O)(=O)Cc2ccccc2)c(Cl)c1=O .
Output: active

Task: // return assay outcome for Cc1c(O)ccc(C(=O)CN2CCN(c3ccc(F)cc3)CC2)c1O
Output: inactive

Task: Any idea what this test logged for Cc1cc(O)c(C(=O)/C=C/c2ccccc2O)c(=O)o1 ?
Output: inactive

* * *

Test: inhibitors of fungal efflux pumps CDR1, CDR2, MDR1, pilot screen, validation compound set, multiplex, phenotypic (AID 588506);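 also: Nile Red retained in cells so higher fluorescence means more efflux inhibition; 0 = negative control wells and 1 = enniatin B 25 µM full block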
Conditions: S. cerevisiae pump-expressing triplex, Nile Red efflux flow cytometry; at 10 µM; stronger effect = higher value; the pumps come from Candida albicans
Give efflux inhibition (fraction of control) for every item shown.
Answers are plain numbers.

Known results for compounds:
OC(COCc1ccccc1)CN1CCN(Cc2ccc3c(c2)OCO3)CC1 (stereo not drawn) ... -0.21
C[C@]12CC[C@@H]3c4cc(O)c(O)cc4CC[C@H]3[C@@H]1CC[C@@H]2O ... 0.49
CCOc1ccc(C(=O)Nc2ccc(N3CCN(C(C)=O)CC3)cc2)cc1[N+](=O)[O-] ... 0.27
C[C@]12CCC(=O)C=C1CC[C@@H]1[C@@H]2C(=O)C[C@@]2(C)[C@H]1CC[C@]2(O)C(=O)CO ... 0.3
O=C(c1ccc(-c2ccccc2)c(F)c1)C1CCCN(C(=O)c2cncs2)C1 (stereo not drawn) ... -0.47

Working through the 4 compounds below one at a time, give efflux inhibition (fraction of control) for each.
1. CN(C)CCC(c1ccc(Br)cc1)c1ccccn1 (stereo not drawn)
2. O=C(O)C[C@@H](O)C(=O)O
3. NC(=O)c1c(-c2ccccc2)oc2ccc(O)cc12
4. Cn1c2[n+](c3ccc(Cl)cc3c1=O)Cc1ccccc1-2

Output:
1: 0.18; 2: -0.2; 3: -0.09; 4: 0.21

* * *

Experiment: modulators of MEP2-GFP levels in yeast, confirmation, S. cerevisiae, flow cytometry GFP, cherry picks (AID 2272);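 also: ratio of well signal to plate DMSO mean so 100% equals DMSO level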
Conditions: S. cerevisiae MEP2-GFP strain, 3 h, at 10 µM, stronger effect = higher value
metric_name: GFP response vs DMSO (%)
Give bare numbers, in %.

List reported GFP response vs DMSO for each of these compounds:
1. CCN(CC)Cc1c(O)ccc2c(C)c(CC(=O)OC)c(=O)oc12
2. COC(CNC(=O)c1ccc2c3c(onc13)-c1ccccc1C2=O)OC
3. O=C(Nc1nc(-c2ccc(Cl)s2)cs1)c1cccs1
4. COc1cccc(N=Cc2nc(-c3ccccc3)oc2OC(C)=O)c1
5. CC(=O)Nc1ccc(NC(=O)c2nc(S(=O)(=O)Cc3cccc(C)c3)ncc2Cl)cc1
6. Cc1ccc(-c2nn(C(C)(C)C)c3ncnc(N)c23)cc1
7. CC1CCCCN1S(=O)(=O)c1ccc(C(=O)Nc2nnc(-c3ccccc3Cl)o2)cc1 (stereo unspecified)

Output:
103
120
97.2
87.8
100
116
102

Take each entry in turn and give its GFP response vs DMSO.
1. Cc1cccc(CS(=O)(=O)c2ncc(Cl)c(C(=O)NCc3ccc4c(c3)OCO4)n2)c1
2. Cc1ccc(C2CC(c3cccs3)=NN2S(=O)(=O)c2ccc(C)cc2)cc1 (stereo unspecified)
3. O=C1c2cccc3cccc(c23)C(=O)N1c1ccncc1
4. COc1ccc(NC(=O)CCN2CCN(S(=O)(=O)c3cc(Cl)ccc3OC)CC2)cc1

Output:
[102, 109, 97.5, 101]
